# assayMethodText: Potency (IC50) in iv dosed gerbil after 1 hr
# settings: gerbillinae, plasma
observedProperty: IC50 at 1 h (nM)
Answers are plain numbers, in nM.

Q: I'd like to know its IC50 at 1 h. The molecule in question is C[C@@H](O[C@H]1CN2C(=O)C(O)C[C@H]2[C@@H]1c1ccc(F)cc1)c1cc(C(F)(F)F)cc(C(F)(F)F)c1 (stereo in doubt; 2b)
Ans: 8.4

====

Give inhibition of substance P-induced inositol phosphate generation for every item shown.
# target: Substance-P receptor (Homo sapiens, UniProt P25103)
# Sequence (P25103 whole entry): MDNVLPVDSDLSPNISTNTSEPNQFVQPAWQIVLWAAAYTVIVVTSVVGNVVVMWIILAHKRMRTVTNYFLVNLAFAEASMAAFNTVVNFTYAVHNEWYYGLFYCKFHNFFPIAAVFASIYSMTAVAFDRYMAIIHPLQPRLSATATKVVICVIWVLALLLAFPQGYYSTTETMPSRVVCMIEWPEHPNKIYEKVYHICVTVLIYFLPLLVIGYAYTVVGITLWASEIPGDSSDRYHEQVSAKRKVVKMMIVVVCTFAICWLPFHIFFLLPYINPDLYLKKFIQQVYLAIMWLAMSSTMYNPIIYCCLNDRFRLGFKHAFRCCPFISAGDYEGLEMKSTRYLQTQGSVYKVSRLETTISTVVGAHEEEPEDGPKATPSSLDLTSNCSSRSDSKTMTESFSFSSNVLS
# assayMethodText: Antagonist activity at human NK1 receptor expressed in CHO cells assessed as inhibition of substance P-induced inositol phosphate generation at 100 nM
# Type: functional, cell-based
Numbers only, in %.

Items follow; give inhibition of substance P-induced inositol phosphate generation for each.
1. C[C@@H](O[C@H]1CN2C(=O)C(NCc3ccn[nH]3)C[C@H]2[C@@H]1c1ccc(F)cc1)c1cc(C(F)(F)F)cc(C(F)(F)F)c1 (stereo partly drawn)
2. C[C@@H](O[C@H]1CN2C(=O)CC(n3cnnc3)[C@H]2[C@@H]1c1ccc(F)cc1)c1cc(C(F)(F)F)cc(C(F)(F)F)c1 (stereo partly drawn)
3. C[C@@H](O[C@H]1CN2C(=O)CC(N)[C@H]2[C@@H]1c1ccc(F)cc1)c1cc(C(F)(F)F)cc(C(F)(F)F)c1 (stereo in doubt; 15a)

Ans:
1. 55
2. 52
3. 75

====

# assayMethodText: Plasma clearance in rat
# Assay type: ADME, organism-based
observedProperty: clearance (mL/min/kg)
Answers are plain numbers, in mL/min/kg.

[[record]]
molecule = "C[C@@H](O[C@H]1CN2C(=O)CC(N)[C@H]2[C@@H]1c1ccc(F)cc1)c1cc(C(F)(F)F)cc(C(F)(F)F)c1 (stereo in doubt; 15a)"
observedproperty = "clearance"
unitannotation = "mL/min/kg"
obsvalue = 8.9


Q: Could you share which clearance value was measured for C[C@@H](O[C@H]1CN2C(=O)C(O)C[C@H]2[C@@H]1c1ccc(F)cc1)c1cc(C(F)(F)F)cc(C(F)(F)F)c1 (stereo in doubt; 2b) ?
Ans: 5.1

====

# assayMethodText: Plasma clearance in dog
# Format: ADME, organism-based, Canis lupus familiaris
observedProperty: clearance (mL/min/kg)
Give bare numbers, in mL/min/kg.

Q: Give the measured clearance of C[C@@H](O[C@H]1CN2C(=O)C(O)C[C@H]2[C@@H]1c1ccc(F)cc1)c1cc(C(F)(F)F)cc(C(F)(F)F)c1 (stereo in doubt; 2b) .
Ans: 0.8

====

# assayMethodText: Stability in dog microsomes assessed as compound remaining after 60 mins
# Assay type: ADME, Canis lupus familiaris, Microsome
# settings: read-out: Stability
Give measured remaining at 1 h for each item. Keep answers brief.
Numbers only, in %.

[[record]]
molecule = "C[C@@H](O[C@H]1CN2C(=O)C(O)C[C@H]2[C@@H]1c1ccc(F)cc1)c1cc(C(F)(F)F)cc(C(F)(F)F)c1 (stereo in doubt; 2b)"
observedproperty = "remaining at 1 h"
unitannotation = "%"
obsvalue = 73


Q: So what does the record say about remaining at 1 h for C[C@@H](O[C@H]1CN2C(=O)CC(N)[C@H]2[C@@H]1c1ccc(F)cc1)c1cc(C(F)(F)F)cc(C(F)(F)F)c1 (stereo in doubt; 15a) ?
Ans: 89

====

# assayMethodText: Displacement of diltiazem […] from calcium channel
Lab note: compare IC50 with 300 nM, writing satisfied if less and not satisfied if equal or more.

A selection of reference data follows.
[[record]]
compound = "C[C@@H](O[C@H]1CN2C(=O)CC(NCc3ccn[nH]3)[C@H]2[C@@H]1c1ccc(F)cc1)c1cc(C(F)(F)F)cc(C(F)(F)F)c1 (stereo partly specified)"
grouplabel = "not satisfied"

[[record]]
compound = "C[C@@H](O[C@H]1CN2C(=O)C(n3cnnc3)C[C@H]2[C@@H]1c1ccc(F)cc1)c1cc(C(F)(F)F)cc(C(F)(F)F)c1 (stereo in doubt; 21a)"
grouplabel = "not satisfied"

[[record]]
compound = "C[C@@H](O[C@H]1CN2C(=O)CC(O)[C@H]2[C@@H]1c1ccc(F)cc1)c1cc(C(F)(F)F)cc(C(F)(F)F)c1 (single isomer, unassigned; 18a)"
grouplabel = "not satisfied"

[[record]]
compound = "C[C@@H](O[C@H]1CN2C(=O)C(C)(O)C[C@H]2[C@@H]1c1ccc(F)cc1)c1cc(C(F)(F)F)cc(C(F)(F)F)c1 (stereo in doubt; 5b)"
grouplabel = "not satisfied"

[[record]]
compound = "C[C@@H](O[C@H]1CN2C(=O)C(NCc3ccn[nH]3)C[C@H]2[C@@H]1c1ccc(F)cc1)c1cc(C(F)(F)F)cc(C(F)(F)F)c1 (stereo partly specified)"
grouplabel = "not satisfied"

[[record]]
compound = "C[C@@H](O[C@H]1CN2C(=O)CC(N)[C@H]2[C@@H]1c1ccc(F)cc1)c1cc(C(F)(F)F)cc(C(F)(F)F)c1 (stereo in doubt; 15a)"
grouplabel = "not satisfied"


Q: Hello, I'm reviewing records and need to know if IC50 of C[C@@H](O[C@H]1CN2C(=O)C(N)C[C@H]2[C@@H]1c1ccc(F)cc1)c1cc(C(F)(F)F)cc(C(F)(F)F)c1 (stereo in doubt; 3b) is below 300 nM. Could you check?
Ans: satisfied

Q: Now give it for C[C@@H](O[C@H]1CN2C(=O)CC(C)(N)[C@H]2[C@@H]1c1ccc(F)cc1)c1cc(C(F)(F)F)cc(C(F)(F)F)c1 (stereo partly specified) too.
Ans: not satisfied

Q: Then what about the compound C[C@@H](O[C@H]1CN2C(=O)C(N)C[C@H]2[C@@H]1c1ccc(F)cc1)c1cc(C(F)(F)F)cc(C(F)(F)F)c1 (stereo in doubt; 3a) ?
Ans: satisfied

Q: Then C[C@@H](O[C@H]1CN2C(=O)CC(n3cnnc3)[C@H]2[C@@H]1c1ccc(F)cc1)c1cc(C(F)(F)F)cc(C(F)(F)F)c1 (stereo partly specified) ?
Ans: not satisfied

====

# assayMethodText: Potency (IC50) in iv dosed gerbil brain after 1 hr
# settings: gerbillinae
observedProperty: IC50 at 1 h (nM)
Give bare numbers, in nM.

Q: State the recorded IC50 at 1 h for this entry: C[C@@H](O[C@H]1CN2C(=O)C(O)C[C@H]2[C@@H]1c1ccc(F)cc1)c1cc(C(F)(F)F)cc(C(F)(F)F)c1 (stereo in doubt; 2b)
Ans: 3.8

====

Can you tell me IC50 for the items I'm about to list?
# target: Substance-P receptor (Homo sapiens, UniProt P25103)
# assayMethodText: Displacement of [125I]substance P from human NK1 receptor expressed in CHO cells in the presence of 50 percent human serum
# Assay type: cell-based
Give bare numbers, in nM.

Examples with their reported IC50 follow.
[[record]]
compound = "C[C@@H](O[C@H]1CN2C(=O)C(NCc3nn[nH]c3CN(C)C)C[C@H]2[C@@H]1c1ccc(F)cc1)c1cc(C(F)(F)F)cc(C(F)(F)F)c1 (stereo not given in full)"
unitannotation = "nM"
obsvalue = 1.4

[[record]]
compound = "C[C@@H](O[C@H]1CN2C(=O)CC(N)[C@H]2[C@@H]1c1ccc(F)cc1)c1cc(C(F)(F)F)cc(C(F)(F)F)c1 (stereo in doubt; 15a)"
unitannotation = "nM"
obsvalue = 0.6

[[record]]
compound = "C[C@@H](O[C@H]1CN2C(=O)C(C)(O)C[C@H]2[C@@H]1c1ccc(F)cc1)c1cc(C(F)(F)F)cc(C(F)(F)F)c1 (stereo in doubt; 5b)"
unitannotation = "nM"
obsvalue = 0.8


State the recorded IC50 for every item in the following list.
1. C[C@@H](O[C@H]1CN2C(=O)C(NCc3ccn[nH]3)C[C@H]2[C@@H]1c1ccc(F)cc1)c1cc(C(F)(F)F)cc(C(F)(F)F)c1 (stereo not given in full)
2. C[C@@H](O[C@H]1CN2C(=O)CC[C@H]2[C@@H]1c1ccc(F)cc1)c1cc(C(F)(F)F)cc(C(F)(F)F)c1

Ans:
1. 0.9
2. 2.2

Need IC50 for each of these compounds.
1. C[C@@H](O[C@H]1CN2C(=O)C(n3cnnc3)C[C@H]2[C@@H]1c1ccc(F)cc1)c1cc(C(F)(F)F)cc(C(F)(F)F)c1 (stereo in doubt; 21a)
2. C[C@@H](O[C@H]1CN2C(=O)CC(O)[C@H]2[C@@H]1c1ccc(F)cc1)c1cc(C(F)(F)F)cc(C(F)(F)F)c1 (single isomer, unassigned; 18a)
3. C[C@@H](O[C@H]1CN2C(=O)C(C)(O)C[C@H]2[C@@H]1c1ccc(F)cc1)c1cc(C(F)(F)F)cc(C(F)(F)F)c1 (single isomer, unassigned)
4. C[C@@H](O[C@H]1CN2C(=O)C(O)C[C@H]2[C@@H]1c1ccc(F)cc1)c1cc(C(F)(F)F)cc(C(F)(F)F)c1 (stereo in doubt; 2b)
5. C[C@@H](O[C@H]1CN2C(=O)C(N)C[C@H]2[C@@H]1c1ccc(F)cc1)c1cc(C(F)(F)F)cc(C(F)(F)F)c1 (stereo in doubt; 3a)
6. CC(=O)N1C[C@H](O[C@H](C)c2cc(C(F)(F)F)cc(C(F)(F)F)c2)[C@@H](c2ccc(F)cc2)[C@@H]1CO
7. C[C@@H](O[C@H]1CN2C(=O)CC(C)(O)[C@H]2[C@@H]1c1ccc(F)cc1)c1cc(C(F)(F)F)cc(C(F)(F)F)c1 (stereo in doubt; 20a)
8. C[C@@H](O[C@H]1CN2C(=O)C(N)C[C@H]2[C@@H]1c1ccc(F)cc1)c1cc(C(F)(F)F)cc(C(F)(F)F)c1 (stereo in doubt; 3b)

Ans:
1.9
2.1
2.5
0.91
2.1
43.1
1.1
0.38

Provide reported IC50 for each item, in the same order as listed.
1. C[C@@H](O[C@H]1CN2C(=O)CC(NCc3ccn[nH]3)[C@H]2[C@@H]1c1ccc(F)cc1)c1cc(C(F)(F)F)cc(C(F)(F)F)c1 (stereo not given in full)
2. C[C@@H](O[C@H]1CN2C(=O)CC(C)(N)[C@H]2[C@@H]1c1ccc(F)cc1)c1cc(C(F)(F)F)cc(C(F)(F)F)c1 (stereo not given in full)
3. C[C@@H](O[C@H]1CN2C(=O)C(n3cnnc3)C[C@H]2[C@@H]1c1ccc(F)cc1)c1cc(C(F)(F)F)cc(C(F)(F)F)c1 (single isomer, unassigned)

Ans:
1. 1.83
2. 0.42
3. 1.8

These data points were gathered from ChEMBL document CHEMBL1155387.
